Each recorded value in this set is attributed to the supplement of paper PMC11061612.

# Tested on: VCaP (Prostate Carcinoma)
# ASSAY TEXT: combination Emax (second highest fraction inhibited in the dose matrix, 72 h); higher = more inhibition; extreme values may be limits of the assay
PROPERTY MEASURED: combination Emax

| COMPOUND | combination Emax |
| --- | --- |
| CC1(C)CCC(CN2CCN(c3ccc(C(=O)NS(=O)(=O)c4ccc(NCC5CCOCC5)c([N+](=O)[O-])c4)c(Oc4cnc5[nH]ccc5c4)c3)CC2)=C(c2ccc(Cl)cc2)C1 [Venetoclax] + Cn1cnc2c(F)c(Nc3ccc(Br)cc3Cl)c(C(=O)NOCCO)cc21 [Selumetinib] (first compound max 1 µM, 7x7, partner max 3 µM) | 0.143 |
| NC1(C(=O)N[C@@H](CCO)c2ccc(Cl)cc2)CCN(c2ncnc3[nH]ccc23)CC1 [Capivasertib] + CC(C)n1c(=O)n(C)c2cnc3cc(F)c(-c4ccc(OCCCN5CCCCC5)nc4)cc3c21 [AZD1390] (first compound max 10 µM, 7x7, partner max 0.3 µM) | 0.458 |

(Q) What measured combination Emax is associated with Cn1cnc2c(F)c(Nc3ccc(Br)cc3Cl)c(C(=O)NOCCO)cc21 [Selumetinib] + C=CCn1c(=O)c2cnc(Nc3ccc(N4CCN(C)CC4)cc3)nc2n1-c1cccc(C(C)(C)O)n1 [AZD1775] (first compound max 10 µM, partner max 1 µM) on VCaP (Prostate Carcinoma)?
(A) 0.509

###

# Tested on: IGR-37 (Melanoma)
# ASSAY TEXT: combination Emax (second highest fraction inhibited in the dose matrix, 72 h); higher = more inhibition; extreme values may be limits of the assay
# combination Emax annotations
Output spec: single numeric token, no unit.

Some solved cases for reference:
| COMPOUND | TARGET | MEASURED |
| --- | --- | --- |
| CCN(CCO)CCCOc1ccc2c(Nc3cc(CC(=O)Nc4cccc(F)c4)[nH]n3)ncnc2c1 [AZD2811] + O=C(c1cc(Cc2n[nH]c(=O)c3ccccc23)ccc1F)N1CCN(C(=O)C2CC2)CC1 [Olaparib] (first compound max 1 µM, 7x7, partner max 10 µM) | IGR-37 (Melanoma) | 0.0609 |
| O=C(c1cc(Cc2n[nH]c(=O)c3ccccc23)ccc1F)N1CCN(C(=O)C2CC2)CC1 [Olaparib] + Cc1c2c(nn1C)CSCc1cc(n(C)n1)CSc1cc(c3ccccc3c1)OCCCc1c(C(=O)O)n(C)c3c-2c(Cl)ccc13 [AZD5991] (first compound max 10 µM, 7x7, partner max 1 µM) | IGR-37 (Melanoma) | 0.151 |
| NC1(C(=O)N[C@@H](CCO)c2ccc(Cl)cc2)CCN(c2ncnc3[nH]ccc23)CC1 [Capivasertib] + CCN(CCO)CCCOc1ccc2c(Nc3cc(CC(=O)Nc4cccc(F)c4)[nH]n3)ncnc2c1 [AZD2811] (first compound max 10 µM, 7x7, partner max 1 µM) | IGR-37 (Melanoma) | 0.371 |

# next compound below
(Q) What does the record list as combination Emax for CN(C)CCCOc1ccc(-c2ccc3ncc4c(c3c2)n(C2CCOCC2)c(=O)n4C)cn1 [AZD0156] + O=C(c1cc(Cc2n[nH]c(=O)c3ccccc23)ccc1F)N1CCN(C(=O)C2CC2)CC1 [Olaparib] (first compound max 3 µM, partner max 3 µM) ?
(A) 0.194

###

# combination Emax annotations
# Test system: NCI-H1666 (Lung Adenocarcinoma)
# ASSAY TEXT: combination Emax (second highest fraction inhibited in the dose matrix, 72 h); higher = more inhibition; extreme values may be limits of the assay
Output spec: single numeric token, no unit.

| MOLECULE | PROPERTY MEASURED | MEASURED |
| --- | --- | --- |
| Cc1nc(-c2cn3c(n2)-c2ccc(-c4cnn(C(C)(C)C(N)=O)c4)cc2OCC3)n(C(C)C)n1 [Taselisib] + O=C(Nc1ccc2[nH]nc(-c3ccncc3)c2c1)[C@@H]1CCN(CC(=O)N2CCN(c3ccc(-c4ncccn4)cc3)CC2)C1 [SCH772984] (first compound max 10 µM, 7x7, partner max 5 µM) | combination Emax | 0.881 |

(Q) What measured combination Emax is associated with CC1(C)CCC(CN2CCN(c3ccc(C(=O)NS(=O)(=O)c4ccc(NCC5CCOCC5)c([N+](=O)[O-])c4)c(Oc4cnc5[nH]ccc5c4)c3)CC2)=C(c2ccc(Cl)cc2)C1 [Venetoclax] + Cn1cnc2c(F)c(Nc3ccc(Br)cc3Cl)c(C(=O)NOCCO)cc21 [Selumetinib] (first compound max 1 µM, 7x7, partner max 3 µM) on NCI-H1666 (Lung Adenocarcinoma)?
(A) 0.575

###

# Tested on: LN-405 (Glioblastoma)
# ASSAY TEXT: Bliss excess, mean over the matrix (fraction); higher = more synergy
Lab note: anything with Bliss excess at or over 0.001 counts as TRUE; the rest go in FALSE.

Illustrative cases are given below, each with its answer.
| COMPOUND | CATEGORY |
| --- | --- |
| CN(C)CCCOc1ccc(-c2ccc3ncc4c(c3c2)n(C2CCOCC2)c(=O)n4C)cn1 [AZD0156] + O=C(c1cc(Cc2n[nH]c(=O)c3ccccc23)ccc1F)N1CCN(C(=O)C2CC2)CC1 [Olaparib] (first compound max 3 µM, partner max 3 µM) | FALSE |
| CC1(C)CCC(CN2CCN(c3ccc(C(=O)NS(=O)(=O)c4ccc(NCC5CCOCC5)c([N+](=O)[O-])c4)c(Oc4cnc5[nH]ccc5c4)c3)CC2)=C(c2ccc(Cl)cc2)C1 [Venetoclax] + C=CCn1c(=O)c2cnc(Nc3ccc(N4CCN(C)CC4)cc3)nc2n1-c1cccc(C(C)(C)O)n1 [AZD1775] (first compound max 1 µM, partner max 1 µM) | TRUE |

(Q) Exam item: decide whether the reported Bliss excess for NC1(C(=O)N[C@@H](CCO)c2ccc(Cl)cc2)CCN(c2ncnc3[nH]ccc23)CC1 [Capivasertib] + CCN(CCO)CCCOc1ccc2c(Nc3cc(CC(=O)Nc4cccc(F)c4)[nH]n3)ncnc2c1 [AZD2811] (first compound max 10 µM, 7x7, partner max 1 µM) is at least 0.001.
(A) FALSE

(Q) Exam item: decide whether the reported Bliss excess for COc1cccc(OCCCN)c1-c1cc(Nc2cnc(C#N)cn2)n[nH]1 [Prexasertib] + CN(C)CCCOc1ccc(-c2ccc3ncc4c(c3c2)n(C2CCOCC2)c(=O)n4C)cn1 [AZD0156] (first compound max 1 µM, 7x7, partner max 1 µM) is at least 0.001.
(A) TRUE

(Q) Exam item: decide whether the reported Bliss excess for Cc1c2c(nn1C)CSCc1cc(n(C)n1)CSc1cc(c3ccccc3c1)OCCCc1c(C(=O)O)n(C)c3c-2c(Cl)ccc13 [AZD5991] + Cn1cnc2c(F)c(Nc3ccc(Br)cc3Cl)c(C(=O)NOCCO)cc21 [Selumetinib] (first compound max 1 µM, 7x7, partner max 3 µM) is at least 0.001.
(A) TRUE

(Q) Exam item: decide whether the reported Bliss excess for NC1(C(=O)N[C@@H](CCO)c2ccc(Cl)cc2)CCN(c2ncnc3[nH]ccc23)CC1 [Capivasertib] + CC(=O)c1c(C)c2cnc(Nc3ccc(N4CCNCC4)cn3)nc2n(C2CCCC2)c1=O [Palbociclib] (first compound max 10 µM, 7x7, partner max 10 µM) is at least 0.001.
(A) FALSE

(Q) Exam item: decide whether the reported Bliss excess for CN(CCO)CC[C@H](CSc1ccccc1)Nc1ccc(S(=O)(=O)NC(=O)c2ccc(N3CCC([C@@H](O)c4ccccc4-c4ccc(Cl)cc4)CC3)cc2)cc1S(=O)(=O)C(F)(F)F [AZD4320] + Cc1cc2ncnn2cc1Nc1ncc2c(n1)n(C1CCOCC1)c(=O)n2C [AZD7648] (first compound max 1 µM, 7x7, partner max 10 µM) is at least 0.001.
(A) TRUE

(Q) Exam item: decide whether the reported Bliss excess for Cn1cnc2c(F)c(Nc3ccc(Br)cc3Cl)c(C(=O)NOCCO)cc21 [Selumetinib] + C=CCn1c(=O)c2cnc(Nc3ccc(N4CCN(C)CC4)cc3)nc2n1-c1cccc(C(C)(C)O)n1 [AZD1775] (first compound max 10 µM, partner max 1 µM) is at least 0.001.
(A) FALSE

###

# System: SISO (Cervical Carcinoma)
# ASSAY TEXT: Bliss excess, mean over the matrix (fraction); higher = more synergy
# Bliss excess annotations
Output spec: single numeric token, no unit.

Some solved cases for reference:
| COMPOUND | MEASURED |
| --- | --- |
| COc1nnc2ccc(N3CCC(c4ccc(OCCN5CCN(C)C(=O)[C@H]5C)cc4)CC3)nn12 [AZD5153] + Cn1cnc2c(F)c(Nc3ccc(Br)cc3Cl)c(C(=O)NOCCO)cc21 [Selumetinib] (first compound max 1 µM, 7x7, partner max 10 µM) | -0.008 |
| Cc1cc2ncnn2cc1Nc1ncc2c(n1)n(C1CCOCC1)c(=O)n2C [AZD7648] + CCN(CCO)CCCOc1ccc2c(Nc3cc(CC(=O)Nc4cccc(F)c4)[nH]n3)ncnc2c1 [AZD2811] (first compound max 10 µM, 7x7, partner max 1 µM) | 0.0662 |
| Cc1cc2ncnn2cc1Nc1ncc2c(n1)n(C1CCOCC1)c(=O)n2C [AZD7648] + C=CCn1c(=O)c2cnc(Nc3ccc(N4CCN(C)CC4)cc3)nc2n1-c1cccc(C(C)(C)O)n1 [AZD1775] (first compound max 10 µM, partner max 1 µM) | -0.0005 |

# next compound below
(Q) What does the record list as Bliss excess for CC(=O)c1c(C)c2cnc(Nc3ccc(N4CCNCC4)cn3)nc2n(C2CCCC2)c1=O [Palbociclib] + CN(CC[C@H](CSC1=CC=CC=C1)NC2=C(C=C(C=C2)S(=O)(=O)NC(=O)C3=CC=C(C=C3)N4CCC(CC4)[C@H](C5=CC=CC=C5C6=CC=C(C=C6)Cl)O)S(=O)(=O)C(F)(F)F)CCO [AZD4320] (first compound max 10 µM, 7x7, partner max 1 µM) ?
(A) -0.0669
